System: S. aureus
Assay: Whole cell antimicrobial screen, MIC (S. aureus)
Format: cell-based
Conditions: 2-fold dilutions, overnight incubation
experimental endpoint: MIC (μg/mL) Sa

Request: Entry O=C(NCc1nc2ccccc2[nH]1)C1CC(c2nn[nH]n2)CN1Cc1ccc(Cl)cc1Cl (mixture of isomers) [130,706] : reported MIC (μg/mL) Sa = ?
Response: >100 µg/mL

Request: Entry Clc1ccc(CN2CCC[C@H]2COCc2nc3ccccc3[nH]2)c(Cl)c1 [130,928] : reported MIC (μg/mL) Sa = ?
Response: 100 µg/mL

Request: Entry O=C(NCc1nc2ccccc2[nH]1)[C@@H]1CCCCN1Cc1ccc(Cl)cc1Cl [130,693] : reported MIC (μg/mL) Sa = ?
Response: <100 µg/mL

Request: Entry O=C(NCc1nc2ccccc2[nH]1)C1CC(O)CN1Cc1ccc(Cl)cc1Cl (stereo not shown) [130,725] : reported MIC (μg/mL) Sa = ?
Response: >100 µg/mL

---

System: S. aureus
Test: Whole cell antimicrobial screen, MIC (S. aureus)
Format: cell-based
Settings: 2-fold dilutions, overnight incubation
I'd appreciate it if you could supply MIC (μg/mL) Sa values for the items below.

Request: Entry O=C(NCc1nc2ccccc2[nH]1)[C@H]1CCCN1Cc1ccc(Cl)cc1Cl : reported MIC (μg/mL) Sa = ?
Response: <100 µg/mL

Request: Entry O=C(NCc1nc2ccccc2[nH]1)[C@@H]1C[C@H](O)CN1Cc1ccc(Cl)cc1Cl : reported MIC (μg/mL) Sa = ?
Response: 100 µg/mL

Request: Entry O=C(NCc1nc2ccccc2[nH]1)[C@@H]1C[C@@H](O)CN1Cc1ccc(Cl)cc1Cl : reported MIC (μg/mL) Sa = ?
Response: <100 µg/mL

---

I'd appreciate it if you could supply MIC (μg/mL) Efm values for the items below.
System: E. faecium
Assay: Whole cell antimicrobial screen, MIC (E. faecium)
Format: cell-based
Conditions: 2-fold dilutions, overnight incubation
Just the number please, in µg/mL, no unit attached.

Request: Lab note: need MIC (μg/mL) Efm with E. faecium for entry O=C(NCc1nc2ccccc2[nH]1)[C@@H]1CCCCN1Cc1ccc(Cl)cc1Cl , please look it up.
Response: 100

Request: Lab note: need MIC (μg/mL) Efm with E. faecium for entry O=C(NCc1nc2ccccc2[nH]1)[C@@H]1C[C@H](O)CN1Cc1ccc(Cl)cc1Cl , please look it up.
Response: 100

Request: Lab note: need MIC (μg/mL) Efm with E. faecium for entry Clc1ccc(CN2CCC[C@H]2COCc2nc3ccccc3[nH]2)c(Cl)c1 , please look it up.
Response: 100

---

Tested on: E. faecium
Test: Whole cell antimicrobial screen, MIC (E. faecium)
Format: cell-based
Conditions: 2-fold dilutions, overnight incubation
Experimental: Compounds were tested for antimicrobial activity against a panel of organisms according to standard procedures described by the National Committee for Clinical Laboratory Standards (NCCLS document M7-A3, Vol. 13, No. 25, 1993/NCCLS document M27-P, Vol. 12, No. 25, 1992). […] Plates were incubated overnight at an appropriate temperature (30° C.-37° C.) and optical densities (measure of cell growth) were measured using a commercial plate reader. […]
experimental endpoint: MIC (μg/mL) Efm

Request: Entry O=C(NCc1nc2ccccc2[nH]1)[C@H]1CCCN1Cc1ccc(Cl)cc1Cl : reported MIC (μg/mL) Efm = ?
Response: >100 µg/mL

Request: Entry O=C(NCc1nc2ccccc2[nH]1)C1CC(c2nn[nH]n2)CN1Cc1ccc(Cl)cc1Cl (mixture of isomers) : reported MIC (μg/mL) Efm = ?
Response: >100 µg/mL

Request: Entry O=C(NCc1nc2ccccc2[nH]1)[C@@H]1C[C@@H](O)CN1Cc1ccc(Cl)cc1Cl : reported MIC (μg/mL) Efm = ?
Response: <100 µg/mL

Request: Entry O=C(NCc1nc2ccccc2[nH]1)C1CC(O)CN1Cc1ccc(Cl)cc1Cl (stereo not shown) : reported MIC (μg/mL) Efm = ?
Response: >100 µg/mL
